experimental.system: 5-hydroxytryptamine receptor 2C (Homo sapiens)
Sequence (P28335 whole entry): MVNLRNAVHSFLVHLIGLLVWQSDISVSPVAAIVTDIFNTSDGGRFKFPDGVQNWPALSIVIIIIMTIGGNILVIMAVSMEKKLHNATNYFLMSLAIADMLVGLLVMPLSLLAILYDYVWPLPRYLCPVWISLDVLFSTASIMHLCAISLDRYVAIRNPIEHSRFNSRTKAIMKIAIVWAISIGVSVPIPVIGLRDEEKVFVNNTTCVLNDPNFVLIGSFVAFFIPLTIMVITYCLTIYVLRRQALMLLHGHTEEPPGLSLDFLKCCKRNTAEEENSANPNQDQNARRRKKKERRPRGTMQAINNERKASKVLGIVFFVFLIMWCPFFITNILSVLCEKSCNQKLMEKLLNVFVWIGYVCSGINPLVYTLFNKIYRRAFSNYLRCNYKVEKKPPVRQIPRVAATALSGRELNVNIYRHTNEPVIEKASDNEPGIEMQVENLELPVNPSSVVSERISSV
measured.attribute: pKi
Give bare numbers, as −log10 of the molar value.

Item: C[C@H](Nc1nc(N)nc(NCCc2ccc(F)cc2)n1)c1ccc(F)cc1 Test system: 5-hydroxytryptamine receptor 2C (Homo sapiens) Read-out: pKi Value: ?
7.70

---

assay.explanation: Oral bioavailability in rat
Assay type: ADME, organism-based
stated.conditions: in vivo
So I've got a bunch of compounds here, and I need their bioavailability values.
One number for each entry, in %.

Field: example entries. Status: answers known.
C[C@H](Nc1nc(N)nc(NCCOc2ccccc2)n1)c1ccccc1 12
C[C@H](Nc1nc(N)nc(NCCc2ccccn2)n1)c1ccc(F)cc1 15
C[C@H](Nc1nc(N)nc(NCCc2ccc(F)cc2)n1)c1ccc(F)cc1 44

Field: next compound
Form field: reported bioavailability of C[C@H](Nc1nc(N)nc(NCCOc2ccc(F)cc2)n1)c1ccc(F)cc1
57
